Data origin, for the record: paper PMC5540273

Tested on: MKNK1
Conditions: concentration: 1 μM, replicates: in singlicate; n = 1;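 note: KINOMEscan kinase panel screen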

>  <Compound>
Cc1ccc(C(=O)Nc2ccc(Nc3ccnc4cc(-c5nccs5)ccc34)cc2O)cc1.Cl [GW494702]

>  <%Inh [%]>
22

$$$$
>  <Compound>
COc1ccc(Nc2nccc(N3CCC(NC(=O)Nc4cccc(OC)c4)C3)n2)cc1 (centres unmarked) [GSK1379742]

>  <%Inh [%]>
3

$$$$
>  <Compound>
Nc1ncnc2c1nc(-c1ccccc1)n2-c1ccccc1 [SKF-97293]

>  <%Inh [%]>
0

$$$$
>  <Compound>
CN(c1ccc(NC(=O)Nc2cc(C(F)(F)F)ccc2F)cc1)c1ccnc(Nc2ccc(S(N)(=O)=O)cc2)n1 [GW809893]

>  <%Inh [%]>
50

$$$$
>  <Compound>
COc1cc(Nc2ncc3c(C)nc(-c4cc5ccccc5[nH]4)n3n2)cc(OC)c1OC [GW869516]

>  <%Inh [%]>
0

$$$$
>  <Compound>
COc1cc(Nc2nccc(-c3c(-c4cccc(NC(=O)c5c(F)cccc5F)c4)nn4ncccc34)n2)cc(OC)c1OC [GSK327238]

>  <%Inh [%]>
5

$$$$
>  <Compound>
COc1cccc(C(=O)Nc2cccc(Oc3ccc4nc(NC(=O)C5CC5)cn4n3)c2)c1

>  <%Inh [%]>
4

$$$$
>  <Compound>
NCCCC(NC(=O)c1cc(Br)c(-c2ccnc3[nH]ccc23)s1)c1ccccc1.O=C(O)C(F)(F)F.O=C(O)C(F)(F)F (centres unmarked) [GSK1287544]

>  <%Inh [%]>
0

$$$$

====

%Inh values, listed per item
Test system: TYK2(JH2domain-pseudokinase)
Settings: concentration: 1 μM, replicates: in singlicate; n = 1
Measured Parameter: %Inh (%)

>  <Compound>
COCCOCCOc1cc2ncc3c4ccc(C#N)cc4[nH]c3c2cc1OC

>  <Numeric Value>
41

$$$$
>  <Compound>
Cc1ccc(S(=O)(=O)Nc2ccc(Nc3nccc(Nc4cccc5[nH]ncc45)n3)cc2)cc1 [GSK581271]

>  <Numeric Value>
93.6

$$$$
>  <Compound>
Cc1cccc(Nc2nc(N[C@H]3CCNC3)ncc2C(N)=O)c1.Cl [GSK2197149]

>  <Numeric Value>
97.7

$$$$
>  <Compound>
C[C@@H]1CC[C@@H](C(=O)Nc2ccccc2)CN1c1cc(-c2ccc3c(N)n[nH]c3c2)nc(N)n1 [GSK2286062]

>  <Numeric Value>
2

$$$$
>  <Compound>
COc1ccc(Nc2nccc(NCCNC(=O)c3cc4ccccc4s3)n2)cc1 [GSK1379896]

>  <Numeric Value>
0

$$$$
>  <Compound>
CN(c1ccc(NC(=O)Nc2cc(C(F)(F)F)ccc2F)cc1)c1ccnc(Nc2ccc(S(N)(=O)=O)cc2)n1 [GW809893]

>  <Numeric Value>
12

$$$$
>  <Compound>
CC(=O)Nc1nc2cnc(Nc3cc(NC(=O)c4cccc(C5(C#N)CC5)c4Cl)ccc3C)nc2s1

>  <Numeric Value>
0

$$$$
>  <Compound>
Cc1ccc(C)c(NC(=O)NC2CCN(c3ccnc(Nc4ccc(F)cc4)n3)C2)c1 (centres unmarked) [GSK1379720]

>  <Numeric Value>
48

$$$$

====

%Inh values, listed per item
System: CSNK1G2
Conditions: concentration: 1 μM, replicates: in singlicate; n = 1

>  <Molecule>
Cc1ccc(C)c(NC(=O)NC2CCN(c3ccnc(Nc4ccc(F)cc4)n3)C2)c1 (centres unmarked)

>  <%Inh (%)>
15

$$$$
>  <Molecule>
Cc1ccc(C(=O)N2CC[C@@H](O)C2)cc1-n1c(C)cc(OCc2ccc(F)cc2F)c(Br)c1=O

>  <%Inh (%)>
0

$$$$
>  <Molecule>
COc1ccc(CNC(=O)NC2CCN(c3ccnc(Nc4ccc(F)cc4)n3)CC2)cc1

>  <%Inh (%)>
0

$$$$
>  <Molecule>
O=C(Nc1cccc(Oc2ccc3nc(NC(=O)C4CC4)cn3n2)c1)c1ccccc1C(F)(F)F

>  <%Inh (%)>
0

$$$$
>  <Molecule>
Clc1ccc(-c2nn3ncccc3c2-c2ccnc(Nc3ccc4c(c3)OCCO4)n2)cc1

>  <%Inh (%)>
42

$$$$
>  <Molecule>
CN(C)Cc1ccc(-c2ccc3c(Nc4ccc(Oc5ccccn5)cc4)ccnc3c2)o1

>  <%Inh (%)>
0

$$$$
>  <Molecule>
Cc1occc1-c1ncc(OC[C@@H](N)Cc2c[nH]c3ccccc23)cc1-c1ccc2[nH]nc(C)c2c1.O=C(O)C(F)(F)F

>  <%Inh (%)>
95.5

$$$$
>  <Molecule>
CSc1cccc2c(-c3ccncn3)c(-c3ccc(F)cc3)nn12

>  <%Inh (%)>
10

$$$$
